Below, each entry is listed alongside its reported MIC.
Tested on: methicillin resistant S. aureus from Stanford University Hospital (MRSA-SU)
Assay: MIC assay, broth microdilution, MRSA-SU
Format: cell-based
Details: Staphylococcus aureus, MRSA, 24 h
endpoint: MIC (µg/mL)

compound	endpoint	u	quantitative result
O=C(Oc1ccccc1[N+](=O)[O-])c1cc(B(O)O)cc([N+](=O)[O-])c1 [Compound F1204]	MIC	µg/mL	512
O=C(OCc1ccccc1)c1cc(B(O)O)cc([N+](=O)[O-])c1 [Compound F1201]	MIC	µg/mL	32
COC(=O)c1cc(B(O)O)cc([N+](=O)[O-])c1 [Compound F1202]	MIC	µg/mL	256
